Reference source for all entries: patent US20260199323A1

Test system: Kasumi-1
Protocol text: CCK-8 tumor cell proliferation, Kasumi-1
Type: cell-based, Human
Condition label: Homo sapiens; Table 22, NTRK inhibitor based; Kasumi-1; read-out: IC50 inhibiting proliferation of tumor cells, Kasumi-1
pIC50: −log10 of the molar value.
Readout type: pIC50

Value wanted: pIC50 (Kasumi-1) of entry O=C1CCC(N2Cc3cc(CN4CCN(c5cccc(-c6cnn7ccc(N8CCC[C@@H]8c8cc(F)ccc8F)nc67)n5)CC4)c(F)cc3C2=O)C(=O)N1 (stereo partly shown) [GT-04264]
> 7.30

Try this compound too: O=C1CCC(N2Cc3cc(CN4CCN(c5cccc(-c6cnc7ccc(N8CCC[C@@H]8c8cccc(F)c8)nn67)n5)CC4)cc(F)c3C2=O)C(=O)N1 (stereo partly shown) [GT-03867]
> 7.30

Repeat with O=C1CCC(N2Cc3cc(CN4CCN(c5cccc(-c6cnn7ccc(N8CCC[C@@H]8c8cc(F)ccc8F)nc67)n5)CC4)ccc3C2=O)C(=O)N1 (stereo partly shown) [GT-04262]
6.30 to 7.00

Follow-up entry: O=C1CCC(N2Cc3c(ccc(CN4CCN(c5cccc(-c6cnn7ccc(N8CCC[C@@H]8c8cc(F)ccc8F)nc67)n5)CC4)c3F)C2=O)C(=O)N1 (stereo partly shown) [GT-04263]
6.00 to 6.30
